Tested on: SLK
Design: species or system human, MV4-11 + K-562 + COLO205 + SK-N-BE2 + OVCAR-8
Settings: read-out: apparent Kd; compound concentrations:100 nM and 1000 nM (sheet 'Samples'); n = 1
readout: potency estimated from few doses

Solved entries:
| compound | potency estimated from few doses |
| --- | --- |
| C[C@@H](Oc1cc(-n2cnc3cc(-c4ccncc4)ccc32)sc1C(N)=O)c1ccccc1Cl [GSK479719A] | 510 nM |
| Cn1cc(C2=C(c3cn(CCCSC(=N)N)c4ccccc34)C(=O)NC2=O)c2ccccc21 | 2100 nM |
| C[C@@H](Oc1cc(-n2cnc3cc(-c4cnn(C)c4)ccc32)sc1C(N)=O)c1ccccc1Cl [GSK580432A] | 615 nM |

Attention now turns to another entry.
Query: What does the data say about its potency estimated from few doses? Entry: C[C@@H](Oc1cc(-n2cnc3cc(-c4ccnc(N5CCN(C)CC5)c4)ccc32)sc1C(N)=O)c1ccccc1Cl [GSK641502A]
Result: 1940 nM

Where these numbers come from: paper PMC11062922
